- System: Wolbachia pipientis
- Test name: Anti-Wolbachia Cell-Based Screen
- Assay type: functional
- Design: scale not given: in the data most compounds retested in dose-response had high values
- Condition info: 5 µM
Hit rate of the full screen: of about 48,000 compounds, about 13,000 (27%) showed an effect of 50% or more. The list shows a part of the results.
Parameter: Percent Effect (%)

In [3]: df
Out[3]:
                                    molecule  endpoint_unit  value_observed
 0  O=C(O)c1cccc(C2CCCN(S(=O)(=O)N3CCOCC3)C2)c1 (stereo not drawn)              %           13.32
 1      CCNC(=O)NCc1ccccc1NS(=O)(=O)c1ccccc1              %           26.47
 2  CC(=O)Nc1nc(CN2CCOC(Cn3nc(C)cc3C)C2)cs1 (stereo not drawn)              %           94.09
 3      CCOc1cc(C(=O)N(C)C)ccc1NC(=O)c1ccsc1              %          -5.987
 4                  CC(C)c1ccc(-c2nonc2N)cc1              %           135.4
 5  NC(=O)N1CCCN(CCc2nc(-c3cccc(Cl)c3)no2)CC1              %           5.099
 6  Cc1cc(NC(=O)CNc2cccc(C(=O)N3CCCC(O)C3)c2)no1 (stereo not drawn)              %          -4.959
 7           NC(=O)c1nc(-c2ccc(Cl)cc2Cl)oc1N              %           118.4
 8  CC1(C)[C@H]2CC=C(CN3CCCn4nc(CNS(C)(=O)=O)cc4C3)[C@@H]1C2              %          -5.008
 9  c1ccc(O[C@H]2COCCN(Cc3c[nH]c4ccccc34)C2)cc1              %           61.61
10  O=C(c1scc2c1OCCO2)N1CCC(Cc2cccc(CO)c2)C1 (stereo not drawn)              %          -12.67
11  Cc1nnc(CN2CCCCC2c2nc(-c3ccccc3)no2)s1 (stereo not drawn)              %           -13.6
12  COc1cccc(CN2CCCCC2Cn2nc(C)nc2C)c1 (stereo not drawn)              %           129.9
13  COc1ccccc1CN1C(=O)O[C@@H]2CN(c3nccs3)C[C@@H]21              %          -9.448
14  O=S(=O)(N1CCOCC1)N1CCCC(c2ccccn2)C1 (stereo not drawn)              %             113
15  c1ccc(-n2ncc(CNCC3CCCN3c3cccnn3)n2)cc1 (stereo not drawn)              %           8.726
16  Cc1nnc(-c2cccc(C#N)c2)n1C1CCN(C(C)C)C1=O (stereo not drawn)              %           107.2
17  CC(=O)Nc1nc(CN2CCOC(Cn3cc(C)cn3)C2)cs1 (stereo not drawn)              %           2.495
18  CC(c1cccc(S(N)(=O)=O)c1)N(C)CCOC(C)(C)C (stereo not drawn)              %           105.4
19    Cc1ncc(S(=O)(=O)Nc2ccnn2C2CCCCC2)[nH]1              %          -19.02
20  CS(=O)(=O)N1CC[C@H](c2nc3ccc(C(F)(F)F)cc3[nH]2)C1              %           11.72
21               Cc1sc(CN)nc1-c1ccc(Cl)cc1Cl              %          -19.51
22  CCCc1nn(C2CCCN(C(C)C)C2=O)c(=O)o1 (stereo not drawn)              %           -1.45
23             CCCC(=O)N(C)Cc1cccc(OC(C)C)c1              %          0.3075
24  COc1cccc(-n2c(C)cc(C(=O)NS(C)(=O)=O)c2C)c1              %          -4.667
25  Cc1ccc(C2CCCN(S(C)(=O)=O)C2)nc1 (stereo not drawn)              %           144.7
26  Cc1nnc(-c2cccc(C#N)c2)n1C1CCCN(C(C)C)C1=O (stereo not drawn)              %           109.2
27  CC(C)N1CCCC(N2CCOC3(CCCC3)C2)C1=O (stereo not drawn)              %          -1.206
28  O=C1CC[C@H]2CN(c3ncc(F)cn3)CC[C@H]2N1CCc1c[nH]cn1              %          -5.494
29  CC1CCC(O)(Cn2ncnc2-c2cccc(C#N)c2)CC1 (stereo not drawn)              %          -11.33
30                      CCCn1nnnc1CSc1nccn1C              %           1.571
31  Cc1cccc(C2(O)CCN(C(=O)c3ccc(N(C)C)cc3)CC2)c1C              %          -4.914
32  c1ccc(O[C@H]2COCCN(Cc3cccc4c3OCO4)C2)cc1              %          -7.306
33  Cc1nnc(-c2cccc(C#N)c2)n1C1CCN(C2CC2)C1=O (stereo not drawn)              %           99.28
34  COc1ccc(CCN2CCCC2Cn2nc(C)nc2C)cc1 (stereo not drawn)              %          -8.655
35  COCC(=O)N[C@H](C)c1onc(-c2ccc(OC)cc2)c1C(=O)O              %           9.623
36  COc1ccc(-c2noc([C@@H](C)NC(=O)CC(C)C)c2C(=O)O)cc1              %          0.3938
37  CCNC(=O)C(C)NC(=O)Nc1ccccc1SCC (stereo not drawn)              %          -19.41
38  CC(C)C(C#N)N1CCN(C(=O)c2cc(-c3ccccn3)no2)CC1 (stereo not drawn)              %          -9.203
39             O=S(=O)(CCO)Cc1ccc(OC(F)F)cc1              %          -13.52
40               c1cnn(CCNCc2nnc(C3CC3)o2)c1              %          -6.862
41  Cc1[nH]nc2ncc(C(=O)N3CCN(C(C)(C)C)CC3)cc12              %           13.12
42  CC1CCN(S(=O)(=O)N2CCCC(c3cccc(C(=O)O)c3)C2)CC1 (stereo not drawn)              %         -0.2169
43         Cc1cncc(C(=O)N2CCOc3nc(C)ccc32)c1              %           1.683
44    CN(Cc1nccs1)c1nc(-c2ccccn2)nc2c1CCNCC2              %          -16.23
45   CN(C1CCN(c2ccccn2)CC1)S(=O)(=O)N1CCOCC1              %           4.035
46  CC(=O)Nc1nc(CN2CCOC(Cn3cncn3)C2)cs1 (stereo not drawn)              %           64.84
47  Cc1csc(C(C#N)C(=O)Nc2ccccc2)n1 (stereo not drawn)              %          -10.65
